# Test system: MDA-MB-231 cells
# experiment_summary: MTT cytotoxicity (cell viability) assay
# Format: cell-based, human
# experimental_parameters: MTT assay after 72h drug exposure; means ± s.e.m., n = 6 to 8; read-out: IC50 values (cytocidal activity)
metric: pIC50
pIC50 here is simply -log10 of the concentration when that concentration is written in mol/L.

### Prompt Note down pIC50 recorded for CC(=O)Nc1ccc(/C=C/C(=O)NCC(=O)N(C)c2ccc(Cl)c(COc3cccc4ccc(C)nc34)c2Cl)cn1
### Response 4.70

* * *

# experiment_summary: Distribution coefficient n-octanol/PBS pH 7.4, shake flask
# experimental_parameters: pH 7.4
metric: logD
Response field accepts a number only; no unit should be typed.

### Prompt Note down logD recorded for NC(N)=NCCC[C@@H](N)C(=O)N[C@@H](CCCN=C(N)N)C(=O)N1CCC[C@H]1C(=O)N1C[C@H](O)C[C@H]1C(=O)NCC(=O)N[C@@H](Cc1cccs1)C(=O)N[C@@H](CO)C(=O)N1Cc2ccccc2C[C@@H]1C(=O)N1[C@H](C(=O)N[C@@H](CCCN=C(N)N)C(=O)O)C[C@@H]2CCCC[C@@H]21 [HOE 140]
### Response -3.06
